tested on: HCT-116 colon; test: NCI tumour cell line growth inhibition, 48 h; in the data active = GI50 below about 0.43 µM; inactive = the rest
A correct response names exactly one class from 1 (yes) = active, 0 (no) = inactive

Write down the call the test reported for this molecule. Item: CCN(CC)CCOc1ccc2c(c1)C(=O)c1cc(OCCN(CC)CC)ccc1-2
0 (no)

----------
tested on: SN12C renal; assay: NCI tumour cell line growth inhibition, 48 h
measure: TGI

I am curious: what TGI value has been reported for CCN(CC)Cc1cc(Nc2c3ccccc3nc3c4ccccc4n(C)c23)ccc1O ?
27.5 µM

I am curious: what TGI value has been reported for COc1ccc(/C=C/C(=O)c2cc3c(N)c(C(=O)Nc4ccccc4C)sc3nc2C)cc1 ?
> 50 µM

I am curious: what TGI value has been reported for O=C(O)C(O)C(O)C(O)C(=O)CO (stereo not drawn) ?
> 100 µM

I am curious: what TGI value has been reported for CCCCN(CCCC)C(=O)C(=O)C(C)C(=O)CC (stereo not drawn) ?
> 100 µM

I am curious: what TGI value has been reported for N[C@@H]1CCCC[C@@H]1N.O=C([O-])CN(CP(=O)([O-])[O-])CP(=O)([O-])[O-].[Pt+2] ?
> 100 µM

I am curious: what TGI value has been reported for NC(Cc1ccnnc1)C(=O)O (stereo not drawn) ?
> 100 µM

I am curious: what TGI value has been reported for C[N+](C)(C)CC(=O)N/N=C(/CC1OC(=O)c2ccccc21)c1ccccc1O (stereo not drawn) ?
> 100 µM

I am curious: what TGI value has been reported for Cn1c2ccccc2c2nc3ccccc3c(Cl)c21 ?
> 100 µM

Data provenance: PubChem BioAssay (NCI)
